For each of the compounds below, state its MIC.
System: Streptococcus pneumoniae
Experiment notes: Antibacterial activity against erythromycin-resistant Streptococcus pneumoniae A22072 expressing mefA gene by broth microdilution method
Assay type: functional
Output spec: scalar in µg/mL, unitless text.

Query string: Specify reported MIC for the compound shown: CC[C@H]1OC(=O)[C@@H](C)[C@H](O[C@@H]2C[C@](C)(OC)[C@H](OC(=O)NNC(=O)/C=C/c3ccc([N+](=O)[O-])cc3)[C@@H](C)O2)[C@H](C)[C@H](O[C@H]2O[C@@H](C)C[C@@H](N(C)C)[C@@H]2O)[C@@](C)(O)C[C@H](C)CN(C)[C@@H](C)[C@H](OC(=O)NCc2ccccc2)[C@@]1(C)O
Result string: 0.12

Query string: Specify reported MIC for the compound shown: CC[C@H]1OC(=O)[C@@H](C)[C@H](O[C@@H]2C[C@](C)(OC)[C@H](OC(=O)NNC(=O)/C=C/c3ccc(Br)cc3)[C@@H](C)O2)[C@H](C)[C@H](O[C@H]2O[C@@H](C)C[C@@H](N(C)C)[C@@H]2O)[C@@](C)(O)C[C@H](C)CN(C)[C@@H](C)[C@H](OC(=O)NCc2ccccc2)[C@@]1(C)O
Result string: 0.12

Query string: Specify reported MIC for the compound shown: CC[C@H]1OC(=O)[C@@H](C)[C@H](O[C@H]2C[C@@](C)(OC)[C@@H](OC(=O)NNC(=O)/C=C/c3ccc(Cl)cc3)[C@H](C)O2)[C@@H](C)[C@H](O[C@H]2O[C@@H](C)C[C@@H](N(C)C)[C@@H]2O)[C@@](C)(O)C[C@H](C)CN(C)[C@@H](C)[C@@H]2OC(=O)O[C@@]12C
Result string: 0.5

Query string: Specify reported MIC for the compound shown: CC[C@@H]1OC(=O)[C@H](C)[C@@H](O[C@H]2C[C@@](C)(OC)[C@@H](OC(=O)NNC(=O)/C=C/c3ccccc3)[C@H](C)O2)[C@@H](C)[C@@H](O[C@@H]2O[C@H](C)C[C@H](N(C)C)[C@H]2O)[C@](C)(O)C[C@@H](C)CN(C)[C@H](C)[C@@H](OC(=O)NCc2ccccc2)[C@]1(C)O
Result string: 1

Query string: Specify reported MIC for the compound shown: CC[C@@H]1OC(=O)[C@H](C)[C@@H](O[C@H]2C[C@@](C)(OC)[C@@H](OC(=O)NNC(=O)/C=C/c3ccco3)[C@H](C)O2)[C@@H](C)[C@@H](O[C@@H]2O[C@H](C)C[C@H](N(C)C)[C@H]2O)[C@](C)(O)C[C@@H](C)CN(C)[C@H](C)[C@@H](OC(=O)NCc2ccc(OC)cc2)[C@]1(C)O
Result string: 0.25

Query string: Specify reported MIC for the compound shown: CC[C@@H]1OC(=O)[C@H](C)[C@@H](O[C@H]2C[C@@](C)(OC)[C@@H](OC(=O)NNC(=O)/C=C/c3ccccc3)[C@H](C)O2)[C@@H](C)[C@@H](O[C@@H]2O[C@H](C)C[C@H](N(C)C)[C@H]2O)[C@](C)(O)C[C@@H](C)CN(C)[C@H](C)[C@@H](OC(=O)NCc2ccc(OC)cc2)[C@]1(C)O
Result string: 0.25

* * *

Test system: Streptococcus pneumoniae
Experiment notes: Antibacterial activity against erythromycin-resistant Streptococcus pneumoniae A22072 expressing mefA gene by broth microdilution method
Type: functional
For each of the compounds below, state its MIC.
Output spec: scalar in µg/mL, unitless text.

Query string: Specify reported MIC for the compound shown: CC[C@@H]1OC(=O)[C@H](C)[C@@H](O[C@H]2C[C@@](C)(OC)[C@@H](OC(=O)NNC(=O)/C=C/c3ccccc3OC)[C@H](C)O2)[C@@H](C)[C@@H](O[C@@H]2O[C@H](C)C[C@H](N(C)C)[C@H]2O)[C@](C)(O)C[C@@H](C)CN(C)[C@H](C)[C@@H](OC(=O)NCc2ccc(OC)cc2)[C@]1(C)O
Result string: 0.25

Query string: Specify reported MIC for the compound shown: CC[C@H]1OC(=O)[C@@H](C)[C@H](O[C@@H]2C[C@](C)(OC)[C@H](OC(=O)NNC(=O)/C=C/c3ccc([N+](=O)[O-])cc3)[C@@H](C)O2)[C@H](C)[C@H](O[C@H]2O[C@@H](C)C[C@@H](N(C)C)[C@@H]2O)[C@@](C)(O)C[C@H](C)CN(C)[C@@H](C)[C@H](OC(=O)NCc2ccc(OC)cc2)[C@@]1(C)O
Result string: 0.5

Query string: Specify reported MIC for the compound shown: CC[C@@H]1OC(=O)[C@H](C)[C@@H](O[C@@H]2C[C@](C)(OC)[C@H](O)[C@@H](C)O2)[C@@H](C)[C@@H](O[C@@H]2O[C@H](C)C[C@H](N(C)C)[C@H]2O)[C@](C)(O)C[C@@H](C)CN(C)[C@H](C)[C@@H](O)[C@]1(C)O
Result string: 4

Query string: Specify reported MIC for the compound shown: CC[C@H]1OC(=O)[C@@H](C)[C@H](O[C@@H]2C[C@](C)(OC)[C@H](OC(=O)NNC(=O)/C=C/c3ccc(Cl)cc3)[C@@H](C)O2)[C@H](C)[C@H](O[C@H]2O[C@@H](C)C[C@@H](N(C)C)[C@@H]2O)[C@@](C)(O)C[C@H](C)CN(C)[C@@H](C)[C@H](OC(=O)NCc2ccc(OC)cc2)[C@@]1(C)O
Result string: 0.12

Query string: Specify reported MIC for the compound shown: CC[C@H]1OC(=O)[C@@H](C)[C@H](O[C@H]2C[C@@](C)(OC)[C@@H](OC(=O)NNC(=O)/C=C/c3ccc(C#N)cc3)[C@H](C)O2)[C@@H](C)[C@H](O[C@H]2O[C@@H](C)C[C@@H](N(C)C)[C@@H]2O)[C@@](C)(O)C[C@H](C)CN(C)[C@@H](C)[C@@H]2OC(=O)O[C@@]12C
Result string: 2

Query string: Specify reported MIC for the compound shown: CC[C@H]1OC(=O)[C@@H](C)[C@H](O[C@H]2C[C@@](C)(OC)[C@@H](OC(=O)NNC(=O)/C=C/c3ccccc3)[C@H](C)O2)[C@@H](C)[C@H](O[C@H]2O[C@@H](C)C[C@@H](N(C)C)[C@@H]2O)[C@@](C)(O)C[C@H](C)CN(C)[C@@H](C)[C@@H]2OC(=O)O[C@@]12C
Result string: 0.25

Query string: Specify reported MIC for the compound shown: CC[C@@H]1OC(=O)[C@H](C)[C@@H](O[C@H]2C[C@@](C)(OC)[C@@H](OC(=O)NNC(=O)/C=C/c3cccs3)[C@H](C)O2)[C@@H](C)[C@@H](O[C@@H]2O[C@H](C)C[C@H](N(C)C)[C@H]2O)[C@](C)(O)C[C@@H](C)CN(C)[C@H](C)[C@@H](OC(=O)NCc2ccc(OC)cc2)[C@]1(C)O
Result string: 0.03
